Data provenance is patent US9833497B2.

Reported MIC M. catarrhalis values for the following substances.
tested on: Moraxella catarrhalis; assay: MIC against Gram-negative bacteria: Moraxella catarrhalis; type: cell-based; details: 96-well plate, 5×10^5 CFU/mL, 37° C., 10 h
Answer in µg/mL, number only, no unit symbol.

Examples with answers:
• PRT654 (DVNECMGEEHCAPHGECLNSHGSFFCLCAPGFVSAEGGTSCQ; listed as Homo sapiens) = 50
• PRT597 (CDCNRAGTQKPICDPDTGMCRCREGVSGQRCDRCARGHSQEFPTCLQ; listed as Homo sapiens) = 12.5
• PRT628 (CTCNQHGTCDPNTGICVCSHHTEGPSCERCLPGFYGNPFAGQADDCQP; listed as Homo sapiens) = 12.5
• PRT646 (DIDECTQVQHLCSQGRCENTEGSFLCICPAGFMASEEGTNCI; listed as Homo sapiens) = 25
• PRT652 (DLDECAFPGVCPSGVCTNTAGSFSCKDCDGGYRPSPLGDSCE; listed as Homo sapiens) = 25
• PRT719 (CNNPCEQFNGGCSHICAPGPNGAECQCPHEGNWYLANNRKHCI; listed as Homo sapiens) = 50

Below: the item to evaluate.
Fill in the blank: the reported MIC M. catarrhalis of PRT663 (DVNECDDLNGPAVLCVHGYCENTEGSYRCHCSPGYVAEAGPPHCT; listed as Homo sapiens) is ____.
12.5
